target: HLA-A*11:01; assay: IEDB peptide-MHC binding, purified MHC/competitive/radioactivity; filed as Kd, often an IC50 or EC50 that approximates it; bounds were set here for any values at or beyond the usual limits of such assays; settings: source organism: Mammarenavirus machupoense
measure: Kd (nM)
# number only, unit nM dropped from output

Look up Kd of SIQKNTIFK and report it.
5.5

###

target: HLA-A*02:01; experiment: IEDB peptide-MHC binding, purified MHC/competitive/radioactivity; filed as Kd, often an IC50 or EC50 that approximates it; bounds were set here for any values at or beyond the usual limits of such assays; conditions: source organism: Mammarenavirus juninense
measure: pKd
Expect pKd as a plain number equal to -log10 of the molar concentration.

Please look at this sequence and report its pKd: GLSQFTQTV
7.52
